Reported viability, T/C is given for each of the following compounds.
system: 931267-113-T-J1-PDC multicell spheroid viability; experiment: Anticancer human tumor 931267-113-T-J1-PDC patient-derived colon adenocarcinoma cell line growth inhibition [PI3K]; details: second compound 3.16 µM; first compound 0.0316 µM; stronger effect = lower value;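 note: viability read 7 days after compound addition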

>  <compound>
C[C@@H](NC(=O)c1ncnc(N)c1Cl)c1ncc(C(=O)Nc2cc(C(F)(F)F)c(Cl)cn2)s1 + Cc1nc(NC(=O)N2CCCC2C(N)=O)sc1-c1ccnc(C(C)(C)C(F)(F)F)c1

>  <viability, T/C>
83.6%

$$$$
>  <compound>
CCCS(=O)(=O)Nc1ccc(F)c(C(=O)c2c[nH]c3ncc(-c4ccc(Cl)cc4)cc23)c1F + Cc1nc(NC(=O)N2CCCC2C(N)=O)sc1-c1ccnc(C(C)(C)C(F)(F)F)c1

>  <viability, T/C>
69%

$$$$
>  <compound>
CC(Cn1ccc(-c2ccc(C#N)c(Cl)c2)n1)NC(=O)c1cc(C(C)O)[nH]n1 (stereo not drawn) + CC(Nc1ncnc2nc[nH]c12)c1cc2cccc(Cl)c2c(=O)n1-c1ccccc1

>  <viability, T/C>
103%

$$$$
